Test: Tmax in NMRI mouse at 10 mg/kg, po
Format: ADME, organism-based
Conditions: in vivo
ASSAY_ENDPOINT: Tmax
Number first, unit second.

O=C(O)Cc1c(C(=O)N2CCC(c3ccccc3F)CC2)nn(-c2ccccc2Cl)c1-c1ccc(Cl)cc1 : 0.5 h

Kindly consider the entry below.
q: What value of Tmax has been recorded for this entry: C[C@@H](NC(=O)c1nn(-c2ccccc2Cl)c(-c2ccc(Cl)cc2)c1Cc1nn[nH]n1)c1ccc(C(F)(F)F)cc1
a: 2 h

###

Experiment: Drug concentration in DIO mouse liver at 10 mg/kg, po measured for 6 hrs
Format: ADME, organism-based
Details: read-out: Drug uptake
ASSAY_ENDPOINT: concentration at 6 h (µM)
Give bare numbers, in µM.

O=C(O)Cc1c(C(=O)N2CCC(c3ccc(F)cc3)CC2)nn(-c2ccccc2Cl)c1-c1ccc(Cl)cc1 : 9.5
C[C@@H](NC(=O)c1nn(-c2ccccc2Cl)c(-c2ccc(Cl)cc2)c1Cc1nn[nH]n1)c1ccc(OC(F)(F)F)cc1 : 35

I would be grateful if you could provide concentration at 6 h for each of the following entries.
1. O=C(O)Cc1c(C(=O)N2CCC(c3ccccc3F)CC2)nn(-c2ccccc2Cl)c1-c1ccc(Cl)cc1
2. C[C@@H](NC(=O)c1nn(-c2ccccc2Cl)c(-c2ccc(Cl)cc2)c1Cc1nn[nH]n1)c1ccc(C(F)(F)F)cc1

a:
1. 10
2. 47
